// data source = ChEMBL document CHEMBL3352408

Tested on: A549
Experiment: Cytotoxicity against human A549 cells after 72 hrs by MTT assay
Format: functional, cell-based
Conditions: A549, 72 h
pIC50: −log10 of the molar value.
endpoint.label: pIC50

Here is how some compounds turned out for pIC50.
compound	pIC50
COc1cc(OC)c2c(O)c(C(C)=O)c(C)cc2c1	< 5.00
Cc1cc(O)c2c(c1)Cc1ccc(C3c4cccc(O)c4C(=O)c4c(O)cc(C)cc43)c(O)c1C2=O (stereo unspecified)	< 5.00
COc1cccc2c1C(=O)C1=C(C[C@H](C)O[C@@H]1C)C2(OC)c1ccc2cc3c(c(O)c2c1O)C(=O)C[C@@](C)(O)C3 (stereo partly specified)	< 5.00
COc1cc([C@@H]2c3cc4c(cc3[C@@H](O[C@@H]3O[C@@H]5CO[C@@H](C)O[C@H]5[C@H](O)[C@H]3O)[C@H]3COC(=O)[C@H]23)OCO4)cc(OC)c1O [ETOPOSIDE]	5.03
COc1cc(C)cc2c1C(=O)c1c(O)cccc1C2=O	< 5.00

Continue with the compound presented below.
Q: Note pIC50 for the compound shown: C[C@@]1(O)CC(=O)c2c(cc3ccc(-c4c5c(c(O)c6c(O)cccc46)C(=O)C[C@@](C)(O)C5)c(O)c3c2O)C1
Result: < 5.00
